The measured values listed here are drawn from ChEMBL document CHEMBL1146217.

Exercise: state measured MIC for each of the compounds provided.
system: Klebsiella aerogenes; experiment: Antibacterial activity against Enterobacter aerogenes after 16 to 20 hrs by broth microdilution method; assay type: functional; details: Klebsiella aerogenes

Previously resolved entries follow.
ENTRY_SMILES | MIC
CN[C@H](CC(C)C)C(=O)N[C@H]1C(=O)N[C@@H](CC(N)=O)C(=O)N[C@H]2C(=O)N[C@H]3C(=O)N[C@H](C(=O)N[C@H](C(=O)O)c4cc(O)cc(O)c4-c4cc3ccc4O)[C@H](O)c3ccc(c(Cl)c3)Oc3cc2cc(c3O[C@@H]2O[C@H](CO)[C@@H](O)[C@H](O)[C@H]2O[C@H]2C[C@](C)(N)[C@H](O)[C@H](C)O2)Oc2ccc(cc2Cl)[C@H]1O | > 100 µg/mL
CO[C@H]1/C=C/O[C@@]2(C)Oc3c(C)c(O)c4c(O)c(c(/C=N/N5CCN(C)CC5)c(O)c4c3C2=O)NC(=O)/C(C)=C\C=C\[C@H](C)[C@H](O)[C@@H](C)[C@@H](O)[C@@H](C)[C@H](OC(C)=O)[C@@H]1C | > 100 µg/mL
CCCCCCCCCCC#Cc1cn([C@@H]2O[C@H](CO)[C@@H](O)[C@H]2F)c(=O)[nH]c1=O | > 100 µg/mL
CCCCCCCCCCCCC#Cc1cn([C@@H]2O[C@H](CO)[C@@H](O)[C@H]2F)c(=O)[nH]c1=O | > 100 µg/mL

For the 3 compounds below, give their MIC values.
1. CCCCCCCCC#Cc1cn([C@@H]2O[C@H](CO)[C@@H](O)[C@H]2F)c(=O)[nH]c1=O
2. CCCCCCCCCCCC#Cc1cn([C@@H]2O[C@H](CO)[C@@H](O)[C@H]2F)c(=O)[nH]c1=O
3. NNC(=O)c1ccncc1

Solution:
1: > 100 µg/mL; 2: > 100 µg/mL; 3: > 100 µg/mL
